TGI by entry:
# Tested on: A498 renal
# Protocol: NCI tumour cell line growth inhibition, 48 h
Observed Property: TGI

Compound: CC1=NN(c2nc(N)nc(/C=C\c3ccccc3)n2)C(C)(C)C1
Result: 20.7 µM
--
Compound: CN(C)CCNC(=O)c1cccc2cc3ccc4ccccc4c3nc12
Result: 0.0693 µM
--
Compound: Cc1ccc(C(=O)N2C/C(=C/c3ccccc3)C(=O)/C(=C/c3ccccc3)C2)cc1
Result: > 100 µM
--
Compound: COC(=O)C1(Cc2ccccc2)Cc2c(C)ccc(C)c2C1=O (stereo not drawn)
Result: > 100 µM
--
Compound: CC(N)=O.[Cl][Pt][Cl].[NH-]c1ccn(C2OC(CO)C(O)C2O)c(=O)n1 (stereo not drawn)
Result: > 100 µM
--
Compound: C=CC1(O)CCCC=C1COCc1ccccc1 (stereo not drawn)
Result: > 100 µM
--
Compound: Clc1ccc(Cn2cc(/C=N/n3cnnc3)c3ccccc32)cc1
Result: 4.34 µM
--
Compound: Fc1ccc(C(OCCN2CC3CC2CN3)c2ccc(F)cc2)cc1 (stereo not drawn)
Result: > 100 µM
--
Compound: O=C(O)Cc1ccc(Oc2nc3ccccc3nc2-c2ccccc2)cc1
Result: > 100 µM
--
Compound: O=C([O-])C1([n+]2c(-c3ccccc3)cc(-c3ccccc3)cc2-c2ccccc2)CC1
Result: > 100 µM
--
Compound: CSc1nc(C)cc(=O)n1C1OC(COC(C)=O)C(OC(C)=O)C(OC(C)=O)C1OC(C)=O (stereo not drawn)
Result: > 100 µM
--
Compound: O=S(=O)(Cc1ccccc1)SCc1ccccc1
Result: 73.6 µM
--
Compound: CO/C(=N\N=C(/c1ccccc1)C(F)(F)F)c1ccncc1
Result: > 100 µM
--
Compound: O=C(/C=C/c1ccc(Cl)cc1)c1ccc(Cl)s1
Result: > 100 µM
--
Compound: O=C(Nc1ccc(Cl)c(Cl)c1)C1C(=O)N(c2ccc(Cl)c(Cl)c2)C(=O)/C1=N\O (stereo not drawn)
Result: > 100 µM
--
Compound: CCN1C(=O)N2C(OC)c3ccccc3C(Br)C2(OC)C1=O (stereo not drawn)
Result: > 100 µM
--
Compound: Nc1n[nH]c2ccc([C@@H]3Nc4c(F)cc5[nH]ncc5c4[C@H]4C5CCC(C5)[C@@H]34)cc12 (stereo partly drawn)
Result: 0.337 µM
--
Compound: Cn1c(SCc2c[nH]c3ccccc23)nnc1-c1ccc(Cl)cc1Cl
Result: 86.3 µM
--
Compound: CCN(CC)Cc1ccc(Nc2c3ccccc3nc3ccccc23)cc1
Result: 9.41 µM
--
Compound: COc1ccc(/C=N/n2c(Cc3ccccc3)n[nH]c2=O)cc1
Result: > 100 µM
--
Compound: Cc1n(Cc2ccc3ccccc3n2)cc[n+]1Cc1ccc2ccccc2c1
Result: 10.2 µM
--
Compound: N=C(N)c1ccc(OCCCCCOc2ccc(C(=N)N)cc2)cc1
Result: > 50 µM
--
Compound: C=C(C)[C@@H]1CC[C@]2(C(=O)n3ccnc3)CC[C@]3(C)[C@H](CC[C@@H]4[C@@]5(C)CCCNC(C)(C)[C@@H]5CC[C@]43C)[C@@H]12
Result: 29.8 µM
